Reported mass density values follow for various compounds
Experiment: xn = mol fraction of the nth substance listed
Settings: 328.15 K; 100 kPa; Liquid; Vibrating tube method; x1 = 0.25
property_name: mass density (kg/m3)

{"compound": "C[N+](C)(C)Cc1ccccc1.[Cl-] [trimethylbenzylammonium chloride] + OCCOCCOCCO", "data_value": 1097.22}
{"compound": "CCCC[N+](CCCC)(CCCC)Cc1ccccc1.[Cl-] [benzyltributylammonium chloride] + OCCO", "data_value": 1016.97}
{"compound": "C[N+](C)(C)Cc1ccccc1.[Cl-] [trimethylbenzylammonium chloride] + OCCOCCO", "data_value": 1091.89}
{"compound": "C[N+](C)(C)Cc1ccccc1.[Cl-] [trimethylbenzylammonium chloride] + OCCO", "data_value": 1082.83}
{"compound": "CCCC[N+](CCCC)(CCCC)Cc1ccccc1.[Cl-] [benzyltributylammonium chloride] + OCCOCCOCCO", "data_value": 1048.43}
{"compound": "CCCC[N+](CCCC)(CCCC)Cc1ccccc1.[Cl-] [benzyltributylammonium chloride] + OCCOCCO", "data_value": 1036.03}
{"compound": "C[N+](C)(C)Cc1ccccc1.[Cl-] [trimethylbenzylammonium chloride] + OCC(O)CO", "data_value": 1164.25}
{"compound": "CCCC[N+](CCCC)(CCCC)Cc1ccccc1.[Cl-] [benzyltributylammonium chloride] + OCC(O)CO", "data_value": 1083.85}

====

Reported speed of sound values follow for various molecules
Assay: xn = mol fraction of the nth substance listed
Settings: 293.15 K; 100 kPa; Liquid; Single path-length method; x1 = 0.25
property_name: speed of sound (m/s)

{"molecule": "CCCC[N+](CCCC)(CCCC)Cc1ccccc1.[Cl-] [benzyltributylammonium chloride] + OCCO", "unit_of_measure": "m/s", "data_value": 1698.9}
{"molecule": "CCCC[N+](CCCC)(CCCC)Cc1ccccc1.[Cl-] [benzyltributylammonium chloride] + OCCOCCO", "unit_of_measure": "m/s", "data_value": 1673.2}
{"molecule": "CCCC[N+](CCCC)(CCCC)Cc1ccccc1.[Cl-] [benzyltributylammonium chloride] + OCC(O)CO", "unit_of_measure": "m/s", "data_value": 1833}
{"molecule": "C[N+](C)(C)Cc1ccccc1.[Cl-] [trimethylbenzylammonium chloride] + OCCO", "unit_of_measure": "m/s", "data_value": 1830.8}

====

Assay: xn = mol fraction of the nth substance listed
Details: 333.15 K; 100 kPa; Liquid; Falling or rolling sphere viscometry; x1 = 0.25
property_name: log10 of viscosity (log10 of the value in mPa·s)

{"compound": "CCCC[N+](CCCC)(CCCC)Cc1ccccc1.[Cl-] [benzyltributylammonium chloride] + OCCOCCOCCO", "data_value": 1.64}
{"compound": "CCCC[N+](CCCC)(CCCC)Cc1ccccc1.[Cl-] [benzyltributylammonium chloride] + OCCOCCO", "data_value": 1.70}
{"compound": "C[N+](C)(C)Cc1ccccc1.[Cl-] [trimethylbenzylammonium chloride] + OCCOCCO", "data_value": 1.27}
{"compound": "CCCC[N+](CCCC)(CCCC)Cc1ccccc1.[Cl-] [benzyltributylammonium chloride] + OCC(O)CO", "data_value": 2.27}
{"compound": "C[N+](C)(C)Cc1ccccc1.[Cl-] [trimethylbenzylammonium chloride] + OCC(O)CO", "data_value": 1.86}
{"compound": "C[N+](C)(C)Cc1ccccc1.[Cl-] [trimethylbenzylammonium chloride] + OCCO", "data_value": 1.09}
{"compound": "C[N+](C)(C)Cc1ccccc1.[Cl-] [trimethylbenzylammonium chloride] + OCCOCCOCCO", "data_value": 1.64}
{"compound": "CCCC[N+](CCCC)(CCCC)Cc1ccccc1.[Cl-] [benzyltributylammonium chloride] + OCCO", "data_value": 1.64}
